target_or_test_system: MDM2 (Homo sapiens, UniProt Q00987)
Sequence (Q00987 whole entry): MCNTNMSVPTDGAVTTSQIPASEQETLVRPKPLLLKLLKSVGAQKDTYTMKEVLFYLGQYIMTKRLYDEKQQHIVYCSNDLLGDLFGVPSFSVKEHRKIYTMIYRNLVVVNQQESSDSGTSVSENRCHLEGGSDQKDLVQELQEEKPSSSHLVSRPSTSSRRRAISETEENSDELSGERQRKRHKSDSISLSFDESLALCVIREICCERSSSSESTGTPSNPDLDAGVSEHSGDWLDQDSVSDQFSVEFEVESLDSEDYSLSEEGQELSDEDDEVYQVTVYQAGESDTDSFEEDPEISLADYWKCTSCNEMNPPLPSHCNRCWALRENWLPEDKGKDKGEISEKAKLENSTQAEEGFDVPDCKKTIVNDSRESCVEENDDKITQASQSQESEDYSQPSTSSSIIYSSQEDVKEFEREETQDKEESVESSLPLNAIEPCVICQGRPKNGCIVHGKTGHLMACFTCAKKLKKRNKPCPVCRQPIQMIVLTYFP
assay: MDM2 binding screen of Libraries 3 and 4: displacement of fluorescent probe F-M8 at 750 nM macrocycle
condition_summary: Panel b, Library 3: 63 scaffolds combinatorially acylated with 15 carboxylic acids at 30 picomole scale; displacement of fluorescent peptide probe; macrocycle 750 nM
parameter: fraction of fluorescent probe displaced
No unit in the answer, only the number.

- compound: "O=C1CCSSCCNC(=O)[C@H](Cc2ccc3ccccc3c2)NC(=O)CN(CCNC(=O)c2ccc(Cl)s2)C(=O)C2(CC2)CN1"
  fraction of fluorescent probe displaced: -0.032
- compound: "O=C1CCSSCCNC(=O)C(Cc2ccc3ccccc3c2)NC(=O)CN(CCNC(=O)C2COc3ccccc3O2)C(=O)C2(CC2)CN1 (mixture of isomers)"
  fraction of fluorescent probe displaced: 0.015
- compound: "O=C(NC[C@@H]1NC(=O)[C@@H]2CN(CCO2)C(=O)CCSSCCNC(=O)[C@H](Cc2c[nH]c3cc(Cl)ccc23)NC1=O)c1ccc2ccccc2c1"
  fraction of fluorescent probe displaced: 0.102
- compound: "Cn1cc(C[C@@H]2NC(=O)[C@H](CNC(=O)C3COc4ccccc4O3)NC(=O)C3(CC3)CNC(=O)CCSSCCNC2=O)c2ccccc21 (some centres unmarked)"
  fraction of fluorescent probe displaced: 0.015

Okay, next one:
Record request: fraction of fluorescent probe displaced value, item `O=C(/C=C/c1ccc(OCc2ccccc2)cc1)NC[C@H]1NC(=O)[C@H]2CCCN(C2)C(=O)CCSSCCNC(=O)[C@H](Cc2c[nH]c3cc(Cl)ccc23)NC1=O` 0.008
